- Tested on: human RNase H2
- method: Antisense inhibition of human RNase H2 expression, Northern blot
- Assay type: cell-based
- Set-up: concentration or dose not given beside the values
- condition summary: RNase H2 expression, Northern blot
Strand notation (5' to 3'): a small letter for the sugar, then the base; units joined by * are phosphorothioate-linked, units joined directly phosphodiester-linked; [ ] holds rarer units or linkages, { } end groups; capitals alone tell only the bases. e = 2'-O-(2-methoxyethyl) (MOE); [5mC] = 5-methylcytosine; d = 2'-deoxy (DNA)
quantity: % inhibition (%)
Provide the reading as a plain figure in %.

// below: answered sequences
monomer sequence	system	% inhibition [%]
CCTACGTGTGGTTCTCCTTA (antisense e[5mC]*e[5mC]*eT*eA*e[5mC]*eG*dT*dG*dT*dG*dG*dT*dT*d[5mC]*eT*e[5mC]*e[5mC]*eT*eT*eA) [ISIS 21960, 2′-O-methoxyethyl gapmer, 8-nucleotide deoxy gap, phosphorothioate backbone, targeted to human RNase H2]	human RNase H2	92
GCACACTCCCACCTTGCTTC (chemistry not fully specified) [ISIS 21961, 2′-O-methoxyethyl gapmer, 8-nucleotide deoxy gap, phosphorothioate backbone, targeted to human RNase H2]	human RNase H2	7
GGACAATAACAGATGGCGTA (eG*eG*eA*e[5mC]*eA*eA*dT*dA*dA*d[5mC]*dA*dG*dA*dT*eG*eG*e[5mC]*eG*eT*eA) [ISIS 21948]	human RNase H2	62

Shifting focus to the sequence that follows.
Q: Give % inhibition for CAAAAGGAAGTAGCTGGACC (antisense e[5mC]*eA*eA*eA*eA*eG*dG*dA*dA*dG*dT*dA*dG*d[5mC]*eT*eG*eG*eA*e[5mC]*e[5mC]) [ISIS 21962, 2′-O-methoxyethyl gapmer, 8-nucleotide deoxy gap, phosphorothioate backbone, targeted to human RNase H2]
A: 37
